Sourced from ChEMBL document CHEMBL1140457

# assay method text: Plasma clearance in Sprague-Dawley rat at 1 mg/kg, iv
# Format: ADME, organism-based
# Parameters: dose 1 mg/kg, route intravenous
value type: clearance
Don't forget the unit after the value.

Per the records, this compound ( N#Cc1ccc(O[C@@H]2CCCC[C@H]2C#N)cc1C(F)(F)F ) has clearance equal to 71 mL/min/kg

---

# assay method text: Volume of distribution at steady state in Sprague-Dawley rat at 1 mg/kg, iv
# Type: ADME, organism-based
# Set-up: dose 1 mg/kg, route intravenous
# applied conditions: in vivo, read-out: Vdss
value type: Vd (L/kg)
Your answer is read as L/kg, so omit the unit and give the number.

// Vd lookup, molecule = N#Cc1ccc(O[C@@H]2CCCC[C@H]2C#N)cc1C(F)(F)F , result: 6.5

---

# subject of test: Androgen receptor (Homo sapiens, UniProt P10275)
# assay method text: Antagonist activity at androgen receptor expressed in MDA-MB-453 cells assessed as inhibition of dihydrotestosterone-induced response in reporter gene assay
# Format: functional, cell-based
Exercise: for every item that follows, state its recorded pIC50.
For clarity, pIC50 is expressed as the negative log10 of concentration in mol/L.

Noted pIC50 for N#Cc1ccc(OC2CCCCC2C#N)cc1C(F)(F)F (racemic) , tested on Androgen receptor (Homo sapiens, UniProt P10275): 7.89

Measured on Androgen receptor (Homo sapiens, UniProt P10275), N#Cc1ccc(O[C@@H]2CCCC[C@H]2C#N)cc1C(F)(F)F has a documented pIC50 of 7.92

The compound N#Cc1ccc(O[C@H]2CCCC[C@@H]2C#N)cc1C(F)(F)F , when measured on Androgen receptor (Homo sapiens, UniProt P10275), yielded pIC50 of 6.71

---

# subject of test: UniProtKB P10275
# Sequence (P10275 whole entry): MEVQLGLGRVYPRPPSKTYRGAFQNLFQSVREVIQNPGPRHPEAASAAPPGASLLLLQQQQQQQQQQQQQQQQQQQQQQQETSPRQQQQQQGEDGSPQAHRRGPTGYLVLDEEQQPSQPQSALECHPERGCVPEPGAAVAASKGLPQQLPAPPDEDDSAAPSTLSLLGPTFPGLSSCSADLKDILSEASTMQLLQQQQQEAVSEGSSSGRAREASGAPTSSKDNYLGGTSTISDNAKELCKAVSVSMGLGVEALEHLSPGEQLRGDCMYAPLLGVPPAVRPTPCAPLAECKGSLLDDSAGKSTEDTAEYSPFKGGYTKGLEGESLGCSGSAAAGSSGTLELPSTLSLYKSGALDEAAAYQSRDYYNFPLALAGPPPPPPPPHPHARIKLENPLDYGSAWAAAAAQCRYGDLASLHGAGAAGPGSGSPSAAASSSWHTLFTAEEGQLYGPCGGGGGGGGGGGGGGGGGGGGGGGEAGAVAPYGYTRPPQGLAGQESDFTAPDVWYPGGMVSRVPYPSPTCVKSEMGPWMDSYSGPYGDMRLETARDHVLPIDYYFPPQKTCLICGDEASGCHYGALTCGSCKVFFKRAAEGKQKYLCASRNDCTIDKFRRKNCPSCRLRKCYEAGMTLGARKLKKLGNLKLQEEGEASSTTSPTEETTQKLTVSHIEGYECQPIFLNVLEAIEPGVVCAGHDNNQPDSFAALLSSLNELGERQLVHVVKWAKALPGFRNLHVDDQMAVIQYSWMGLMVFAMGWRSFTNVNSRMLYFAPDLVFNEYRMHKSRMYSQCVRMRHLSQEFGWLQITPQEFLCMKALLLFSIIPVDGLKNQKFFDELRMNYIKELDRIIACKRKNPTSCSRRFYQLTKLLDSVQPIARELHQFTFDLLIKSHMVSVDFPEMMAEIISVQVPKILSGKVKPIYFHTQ
# assay method text: Displacement of [3H]DHT from androgen receptor expressed in Sf9 cells
Exercise: state measured pIC50 for each of the compounds provided.
Please note pIC50 is a logarithmic value: minus log10 of concentration in mol/L. Answer with that number alone.

Form field pIC50, entry N#Cc1ccc(O[C@@H]2CCCC[C@H]2C#N)cc1C(F)(F)F : 7.22

Per the record, N#Cc1ccc(OC2CCCCC2C#N)cc1C(F)(F)F (racemic) has pIC50 of 7.24

Memo: N#Cc1ccc(O[C@H]2CCCC[C@@H]2C#N)cc1C(F)(F)F , reported pIC50: 7.37
